The origin of these recorded values is the supplement of paper PMC10899765.

# System: MCF10A
# TEST METHOD NOTES: 5+ nucleoli phenotype percent effect (relative to siNT 0% and siKIF11 100%); higher = more cells with five or more nucleoli
# DETAILS: 20 nM; 72 h
The entries below are paired with their reported 5+ nucleoli phenotype percent effect.
Quick note: give the figure in %, leave out the unit.

query: Using the record for ACCUGGCAGCAGGGAGCGUCGU [hsa-miR-8073] , report its 5+ nucleoli phenotype percent effect.
result: -35.6

query: Using the record for CUAUUAAGGACAUUUGUGAUUC [hsa-miR-4477a] , report its 5+ nucleoli phenotype percent effect.
result: -13.7

query: Using the record for UAGAUCUUUGACUCUGGCAGUCUCCAGG [hsa-miR-7161-3p] , report its 5+ nucleoli phenotype percent effect.
result: 28.4

query: Using the record for CACUGCAGGACUCAGCAG [hsa-miR-4418] , report its 5+ nucleoli phenotype percent effect.
result: -22.7

query: Using the record for GAUAUCAGCUCAGUAGGCACCG [hsa-miR-3074-3p] , report its 5+ nucleoli phenotype percent effect.
result: 2.53

query: Using the record for AGGCAAGAUGCUGGCAUAGCU [hsa-miR-31-5p] , report its 5+ nucleoli phenotype percent effect.
result: -4.74

query: Using the record for UAGGCAGUGUAUUGCUAGCGGCUGU [hsa-miR-449c-5p] , report its 5+ nucleoli phenotype percent effect.
result: -19.5

----------
# System: MCF10A
# TEST METHOD NOTES: one-nucleolus phenotype percent effect (relative to siNT 0% and siNOL11 100%); higher = more cells with one nucleolus (ribosome biogenesis inhibition)
# DETAILS: 20 nM; 72 h
The entries below are paired with their reported one-nucleolus phenotype percent effect.
Quick note: give the figure in %, leave out the unit.

Examples with their reported one-nucleolus phenotype percent effect follow.
AGGUGUGUCUGUAGAGUCC [hsa-miR-3650] :: 45.8
UCCCCUUCCUCCCUGCCCAG [hsa-miR-6756-3p] :: -12.3
UAGGCAGUGUAUUGCUAGCGGCUGU [hsa-miR-449c-5p] :: 17.4

query: Using the record for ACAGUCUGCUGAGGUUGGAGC [hsa-miR-622] , report its one-nucleolus phenotype percent effect.
result: 8.72

query: Using the record for AAGGAGAUGCUCAGGCAGAU [hsa-miR-6888-5p] , report its one-nucleolus phenotype percent effect.
result: 86.2

query: Using the record for UUGUCUGCUGAGUUUCC [hsa-miR-4288] , report its one-nucleolus phenotype percent effect.
result: 27.6

query: Using the record for AAAAGGCGGGAGAAGCCCCA [hsa-miR-4484] , report its one-nucleolus phenotype percent effect.
result: 92.8

----------
# Test system: MCF10A
# TEST METHOD NOTES: one-nucleolus phenotype percent effect (relative to siNT 0% and siNOL11 100%); higher = more cells with one nucleolus (ribosome biogenesis inhibition)
# DETAILS: 20 nM; 72 h
QUANTITY MEASURED: one-nucleolus phenotype percent effect (%)
Quick note: give the figure in %, leave out the unit.

Examples with their reported one-nucleolus phenotype percent effect follow.
AAGGUAUUGUUCAGACUUAUGA [hsa-miR-4678] :: 5.33
AGGGAAGGAGGCUUGGUCUUAG [hsa-miR-4747-5p] :: -5.76
CAAAAACCAUAGUUACUUUUGC [hsa-miR-548bb-3p] :: -26
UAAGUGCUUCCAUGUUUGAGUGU [hsa-miR-302d-3p] :: -16.6
AAUGAGAGACCUGUACUGUAU [hsa-miR-4712-3p] :: 34.8

query: Using the record for UCAUCCCCCUCGCCCUCUCAG [hsa-miR-6729-3p] , report its one-nucleolus phenotype percent effect.
result: -21.1

query: Using the record for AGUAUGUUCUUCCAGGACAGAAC [hsa-miR-567] , report its one-nucleolus phenotype percent effect.
result: 8.77
